List of pIC50 values.
# Test system: Leishmania donovani
# method-summary: Cytotoxicity against SSG-resistant Leishmania donovani Ld39 by MTS assay
# Format: organism-based
pIC50: −log10 of the molar value.
recorded-metric: pIC50

• O=c1cc(-c2ccc(O)cc2)oc2cc(O)cc(O)c12 [APIGENIN] = 4.37
• O=c1cc(-c2ccc(OCCOCCOCCOCCOCCOc3ccc(-c4cc(=O)c5c(O)cc(O)cc5o4)cc3)cc2)oc2cc(O)cc(O)c12 = 4.38
• O=c1cc(-c2ccc(OCCOCCOCCOCCOc3ccc(-c4cc(=O)c5c(O)cc(O)cc5o4)cc3)cc2)oc2cc(O)cc(O)c12 = 5.00
• O=c1cc(-c2ccc(OCCOCCOCCOCCOCCOCCOCCOCCOCCOc3ccc(-c4cc(=O)c5c(O)cc(O)cc5o4)cc3)cc2)oc2cc(O)cc(O)c12 = 4.85
• O=c1cc(-c2ccc(OCCOCCOCCOCCOCCOCCOCCOCCOCCOCCOCCOCCOCCOc3ccc(-c4cc(=O)c5c(O)cc(O)cc5o4)cc3)cc2)oc2cc(O)cc(O)c12 = 4.22
• O=c1cc(-c2ccc(OCCOCCOCCOCCOCCOCCOc3ccc(-c4cc(=O)c5c(O)cc(O)cc5o4)cc3)cc2)oc2cc(O)cc(O)c12 = 4.89
• O=c1cc(-c2ccc(OCCOCCOCCOc3ccc(-c4cc(=O)c5c(O)cc(O)cc5o4)cc3)cc2)oc2cc(O)cc(O)c12 = 4.96
• O=c1cc(-c2ccc(OCCOCCOCCOCCOCCOCCOCCOCCOc3ccc(-c4cc(=O)c5c(O)cc(O)cc5o4)cc3)cc2)oc2cc(O)cc(O)c12 = 4.85
